Target: UniProtKB P33261
Experiment: clinical
Conditions: both, in vivo, AUC0–24, Trt A, Day 1, cocktail alone, geometric mean (95% CI)
READOUT_LABEL: AUC(0-t) (ng·h/mL)
Number only, in ng·h/mL; omit the unit.

The compound identified as COc1ccc2[nH]c([S+]([O-])Cc3ncc(C)c(OC)c3C)nc2c1 (stereo not shown) registered its AUC(0-t) at 372

###

Molecular target: CYP2C19 (Homo sapiens, UniProt P33261)
Sequence (P33261 whole entry): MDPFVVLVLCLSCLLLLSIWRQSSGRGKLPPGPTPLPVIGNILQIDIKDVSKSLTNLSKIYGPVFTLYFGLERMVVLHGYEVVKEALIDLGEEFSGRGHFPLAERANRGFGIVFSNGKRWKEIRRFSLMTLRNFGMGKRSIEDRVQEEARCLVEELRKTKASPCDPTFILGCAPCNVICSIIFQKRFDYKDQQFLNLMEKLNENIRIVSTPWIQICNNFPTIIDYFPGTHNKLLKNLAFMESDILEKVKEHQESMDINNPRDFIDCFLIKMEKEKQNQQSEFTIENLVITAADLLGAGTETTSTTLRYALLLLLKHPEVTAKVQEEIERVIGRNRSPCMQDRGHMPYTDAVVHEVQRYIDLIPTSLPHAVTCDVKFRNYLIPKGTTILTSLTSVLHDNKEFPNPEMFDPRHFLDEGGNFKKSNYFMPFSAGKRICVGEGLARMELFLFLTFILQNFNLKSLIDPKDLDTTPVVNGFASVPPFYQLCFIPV
Assay: in vitro
Assay type: in vitro ADME
Settings: human, recombinant enzyme
READOUT_LABEL: IC50 shift at 30 min

Query Cc1ccc(C(=O)N2CCOC[C@H]2Cc2cccc(-n3nccn3)c2)c(-n2nccn2)c1 on CYP2C19 (Homo sapiens, UniProt P33261); IC50 shift at 30 min returned: 67
